Molecular target: hemagglutinin (HA) on live influenza A virus A/Wisconsin/67/05 H3N2 (Influenza A virus A/Wisconsin/67/2005 …)
Test: cell-based or functional assay
QUANTITY_NAME: % Neutralization (%)

BINDER	REPORTED_MEASUREMENT
TCN-539 (5056_A08) (antibody, V domains shown) VH: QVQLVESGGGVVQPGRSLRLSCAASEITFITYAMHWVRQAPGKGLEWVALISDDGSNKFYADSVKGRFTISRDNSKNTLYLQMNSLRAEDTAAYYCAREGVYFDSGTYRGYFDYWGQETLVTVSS VL: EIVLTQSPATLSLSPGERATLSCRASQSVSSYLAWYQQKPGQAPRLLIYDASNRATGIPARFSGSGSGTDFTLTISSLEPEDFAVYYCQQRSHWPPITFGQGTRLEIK	99
TCN-543 (5081_G23) (antibody, V domains shown) VH: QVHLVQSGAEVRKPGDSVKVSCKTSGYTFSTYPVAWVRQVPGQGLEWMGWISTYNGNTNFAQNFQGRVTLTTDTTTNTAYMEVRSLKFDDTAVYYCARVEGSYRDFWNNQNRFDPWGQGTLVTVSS VL: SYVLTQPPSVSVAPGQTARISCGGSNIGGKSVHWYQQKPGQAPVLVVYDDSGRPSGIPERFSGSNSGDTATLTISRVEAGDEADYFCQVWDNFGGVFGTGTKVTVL	73
TCN-546 (5089_L08) (antibody, V domains shown) VH: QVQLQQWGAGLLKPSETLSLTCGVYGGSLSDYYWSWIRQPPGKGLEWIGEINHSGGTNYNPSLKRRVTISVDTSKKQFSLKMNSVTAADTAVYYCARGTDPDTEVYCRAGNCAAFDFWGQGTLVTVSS VL: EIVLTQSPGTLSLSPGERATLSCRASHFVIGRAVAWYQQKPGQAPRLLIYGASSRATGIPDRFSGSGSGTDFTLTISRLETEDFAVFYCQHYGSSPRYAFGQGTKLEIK	100
TCN-536 (5095_N01) (antibody, V domains shown) VH: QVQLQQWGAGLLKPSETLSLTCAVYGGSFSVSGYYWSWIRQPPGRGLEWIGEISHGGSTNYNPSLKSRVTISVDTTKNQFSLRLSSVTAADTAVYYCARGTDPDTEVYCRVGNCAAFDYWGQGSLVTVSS VL: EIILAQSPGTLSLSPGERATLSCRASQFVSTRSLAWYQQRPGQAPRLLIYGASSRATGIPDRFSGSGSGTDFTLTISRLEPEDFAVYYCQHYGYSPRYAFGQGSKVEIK	99.9
TCN-558 (5248_H10b) (antibody, V domains shown) VH: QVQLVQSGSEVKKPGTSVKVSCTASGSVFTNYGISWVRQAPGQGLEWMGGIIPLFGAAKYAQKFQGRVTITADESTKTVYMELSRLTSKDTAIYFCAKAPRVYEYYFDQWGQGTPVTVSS VL: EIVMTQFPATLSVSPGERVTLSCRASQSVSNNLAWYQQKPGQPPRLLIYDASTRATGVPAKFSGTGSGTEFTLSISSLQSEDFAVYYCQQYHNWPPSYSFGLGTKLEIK	7

Values compiled from patent US20120207760A1.
